# System: STAT3-DNA binding in HeLa nuclear extracts
# ASSAY_TEXT: Cell-based STAT3 DNA-binding ELISA on nuclear extracts
# Parameters: species or system human
# RECORDED_CONDITIONS: Homo sapiens; HeLa cells dosed 24h, 0.0675μM-1.0μM dose-response; ± SEM; read-out: EC50 for STAT3-DNA binding in nuclear extract ELISA
PROPERTY: EC50 (nM)
Numbers only, in nM.

Qu. Using the record for O=C(Nc1ccc([N+](=O)[O-])cc1Cl)c1cc(Cl)ccc1O [niclosamide] , report its EC50.
Ans. 190

* * *

# Tested on: HeLa cells
# ASSAY_TEXT: MTT assay (cell viability)
# Format: cell-based, human
# RECORDED_CONDITIONS: Homo sapiens, 24-hour treatment, ± SEM
PROPERTY: EC50 (µM)
Give bare numbers, in µM.

For every item in the list below, what is its measured EC50?
1. CC(=O)Nc1ccc(N2C(=O)/C(=C/c3ccc(Cl)cc3)C=C2c2ccccc2)cc1
2. O=C1/C(=C/c2ccc(Cl)cc2)C=C(c2ccccc2)N1c1ccc(O)cc1
3. O=C(Nc1ccc([N+](=O)[O-])cc1Cl)c1cc(Cl)ccc1O [niclosamide]
4. O=[N+]([O-])c1ccc2c(c1)S(=O)(=O)C=C2

Ans.
1. 6.1
2. 12.4
3. 1.09
4. 0.29
